System: M14 melanoma
methodSummary: NCI tumour cell line growth inhibition, 48 h
readoutType: TGI

Reference set, count: 4
COc1ccc(C2Oc3cc(OC)c(OC)cc3C2CCl)cc1OC (stereo not given) : > 100 µM
CN1CCN(c2ccc(Nc3ncc(Cl)c(NC[C@@H]4CCCO4)n3)cc2)CC1 : 11.2 µM
O=C(Nc1nn2c(-c3cc(C(F)(F)F)cc(C(F)(F)F)c3)nnc2s1)C1CCCC1 : > 100 µM
CN(C)C=Nc1nc(=O)n(C2CCC(CO)O2)cc1F (stereo not given) : > 100 µM

Here's the next entry for you.
Query block: What value of measured TGI is listed for Nc1nc2[nH]cc(CCc3ccc(C(=O)N[C@@H](CCC(=O)O)C(=O)O)cc3)c2c(=O)[nH]1 ?
Result block: > 100 µM

###

Test system: HT29 colon
methodSummary: NCI tumour cell line growth inhibition, 48 h
TGI reference

CC(C)(C)[Si](C)(C)OC1[C@@H](O[Si](C)(C)C(C)(C)C)[C@@H](CNC(=O)NC(=O)C(F)(F)F)O[C@H]1n1cnc2c(NC(=O)Nc3ccccc3)ncnc21 (stereo not given in full) : 11.1 µM

Here's the next entry for you.
Query block: What value of measured TGI is listed for COC(=O)CC(C)(NS(=O)c1ccc(C)cc1)c1ccccc1 (stereo not given) ?
Result block: > 100 µM

###

System: BT-549 breast
methodSummary: NCI tumour cell line growth inhibition, 48 h
Classification field: enter 1 for TGI values not below 20 µM, -1 for values below it.

O=C(Nc1nn2c(-c3cc(C(F)(F)F)cc(C(F)(F)F)c3)nnc2s1)C1CCCC1 : 1
CSC(=O)c1sc(SC)[n+](-c2ccccc2)c1O : 1
COc1cc(-c2nn(-c3cccc(NC(=O)c4ccccc4)c3)cc2-c2ccncc2)ccc1Cl : 1

Query block: Is TGI for Cc1ccc(NC2=C3CCCCC3OC2=O)cc1 (stereo not given) at or above 20 µM?
Result block: 1

Query block: Is TGI for COc1cc2c(cc1OC)C(Cl)C(c1ccc(F)cc1)=C2Cl (stereo not given) at or above 20 µM?
Result block: -1

Query block: Is TGI for O=C(Nc1cccc(C(F)(F)F)c1)Nc1cccc(C(F)(F)F)c1 at or above 20 µM?
Result block: -1

Query block: Is TGI for C[C@@H]1CC[C@H]2C(C)(C)[C@H]3C[C@@]12CC[C@@]3(C)O at or above 20 µM?
Result block: 1

Query block: Is TGI for CCOc1ccc(NC2=CC(=O)C(=O)c3ccccc32)cc1 at or above 20 µM?
Result block: -1

Query block: Is TGI for COC(=O)/C=C/c1cc(OC(C)=O)c2c(c1)[C@@H](C(=O)OC)[C@H](c1ccc(OC(C)=O)c(OC(C)=O)c1)O2 at or above 20 µM?
Result block: 1

###

Test system: HS 578T breast
methodSummary: NCI tumour cell line growth inhibition, 48 h
readoutType: TGI

Query block: Notebook entry, HS 578T breast assay: TGI of O=C(O)C1C2c3ccccc3C(c3ccccc32)C1C(=O)NCC1CC1 (stereo not given) = ?
Result block: > 100 µM

###

Tested on: SNB-19 CNS
methodSummary: NCI tumour cell line growth inhibition, 48 h
readoutType: TGI

Reference set, count: 5
CC1=NN(c2nc(N)nc(COc3ccc(N)cc3)n2)C(C)(C)C1 : > 100 µM
COC(=O)CC(C)(NS(=O)c1ccc(C)cc1)c1ccccc1 (configuration not stated) : > 100 µM
CC#Cc1ccc(-c2ccccc2)s1 : > 100 µM
CCN(CC)CCCNC(=O)c1cc(-c2nccn2C)nc2ccccc12 : > 100 µM
O=S1C(=c2ccc(=C3Sc4ccccc4S3)cc2)Sc2ccccc21 (configuration not stated) : 30.7 µM

Query block: What value of measured TGI is listed for COc1ccc(C(SCCO)(c2ccccc2)c2ccc(OC)cc2)cc1 ?
Result block: 22.8 µM

Query block: What value of measured TGI is listed for O=C1C(C(Nc2ccccc2)c2ccccc2)=C([O-])c2ccccc21.O=C1C(C(Nc2ccccc2)c2ccccc2)=C([O-])c2ccccc21.[Cu+2] (configuration not stated) ?
Result block: > 100 µM

Query block: What value of measured TGI is listed for O=C1c2cc3c(cc2CC12Cc1ccc4c(c1C2=O)CCC4)CCCC3 (configuration not stated) ?
Result block: > 100 µM

Query block: What value of measured TGI is listed for CC1NC(=O)C(C)C(c2ccccc2)N(N=O)C1c1ccccc1 (configuration not stated) ?
Result block: > 100 µM

Query block: What value of measured TGI is listed for CCCOc1nc(N)c2cnn(C3CCCCO3)c2n1 (configuration not stated) ?
Result block: > 100 µM

###

Tested on: HCC-2998 colon
methodSummary: NCI tumour cell line growth inhibition, 48 h
readoutType: log10 TGI (log10 of the value in µM)
Scale: decimal log of TGI, TGI in µM.

Reference set, count: 3
COc1ccc(CN2C(=O)C(Cl)=C(Nc3cccc(C(F)(F)F)c3)C2=O)cc1 : 1.41
CCCC/C=C/C=C/C=C/CCCCCCCC(=O)OCC(COC(=O)CCCCCCC/C=C/C1C=CC(CCCC)C(C(=O)O)C1C(=O)O)OC(=O)CCCCCCC/C=C/C=C/C=C/CCCC (stereo unspecified) (tested in a mixture with another compound) : 1.61
CC[C@@H](c1ccc(O)c(O)c1)[C@@H](CC)c1ccc(O)c(O)c1 : 1.52

Query block: What value of measured log10 TGI is listed for C=C1C(=O)O[C@@H]2/C=C(C)/C=C\[C@@H]3O[C@@]3(C)C[C@@H](O)C12 (stereo partly specified) ?
Result block: 1.52

Query block: What value of measured log10 TGI is listed for CCOC(=O)CCC(NC(=O)C(N)Cc1ccc(N(CCCl)CCCl)cc1)C(=O)OCC (stereo unspecified) ?
Result block: 0.35

Query block: What value of measured log10 TGI is listed for O=C1c2ccccc2C(=O)c2c(/C=C\N3CCCCC3)ccnc21 ?
Result block: 1.08

Query block: What value of measured log10 TGI is listed for N=c1oc2ccccc2cc1C(=O)NC12CC3CC(CC(C3)C1)C2 ?
Result block: 1.46

Query block: What value of measured log10 TGI is listed for COc1cc2c(cc1OC)C(Cl)C(c1ccc(F)cc1)=C2Cl (stereo unspecified) ?
Result block: 1.45

Query block: What value of measured log10 TGI is listed for COCOC1/C=C/CCCCC(=O)C(C)C#CC1 (stereo unspecified) ?
Result block: 1.31

###

TGI reference
Test system: UACC-62 melanoma
methodSummary: NCI tumour cell line growth inhibition, 48 h
Give just the number in µM; leave the unit off.

Reference set, count: 5
N#CSC#CCCC#CSC#N : 31.8
Cc1cc(OC(=O)Nc2cccc3ccccc23)c(C(C)C)cc1C(=S)Nc1ccccc1 : 26.5
Cc1cc(Nc2ccc(C)c(Cl)c2)n2nc(C(F)(F)F)nc2n1 : 50.1
COc1cc(-c2nc3sccn3c2-c2ccnc(NCCNS(=O)(=O)c3ccc(F)cc3)n2)ccc1F : 2.55
O=C1/C(=C\c2ccc(Cl)cc2Cl)Sc2scc(-c3ccc(O)c(O)c3)[n+]21 : 22.4

Query block: What value of measured TGI is listed for CCOC(=O)CCC(NC(=O)C(N)Cc1ccc(N(CCCl)CCCl)cc1)C(=O)OCC (stereo unspecified) ?
Result block: 1.4

Query block: What value of measured TGI is listed for Fc1cc(-c2nnc3n2N=C(c2ccc(Cl)cc2)CS3)c(Cl)cc1Cl ?
Result block: 14.9

Query block: What value of measured TGI is listed for COCCOCOC(CCCCO)c1cc(C)c(O[Si](C)(C)C(C)(C)C)c(C)c1 (stereo unspecified) ?
Result block: 25.4

###

System: CCRF-CEM leukemia
methodSummary: NCI tumour cell line growth inhibition, 48 h
TGI reference

Reference set, count: 5
COc1ccc(C2=CC(C(C)=C(C(N)=O)C(N)=O)C=C(c3ccc(Br)cc3)C2)c(OC)c1 (stereo not drawn) : > 100 µM
NC(=S)N/N=C\c1nccc2c(C(F)(F)F)cccc12 : 12.1 µM
[O-][Cl+3]([O-])([O-])[O-].[O]=[Ru]=[O].c1ccc(-c2ccccn2)nc1.c1ccc(-c2ccccn2)nc1 : > 100 µM
CC(=O)N[C@@H](Cc1ccc(OP(=O)(O)O)cc1)C(=O)N[C@H]1CCC(=O)N2CCC[C@@H](C(=O)Nc3cccc4ccccc34)N2C1=O : > 25 µM
Cc1cc2c(cc1C)[n+](=O)c(C(=O)c1ccccc1)c(C(F)F)n2[O-] : 29.6 µM

Query block: What value of measured TGI is listed for COCCn1cc(-c2nc(-c3cc4cccnc4[nH]3)cs2)c2cc(OC)ccc21 ?
Result block: > 100 µM

Query block: What value of measured TGI is listed for CC(C)[C@@H]1NC(=O)[C@]2(C)CSC(=N2)c2ccnc(c2)CNC(=O)C[C@@H](/C=C/CCS)OC1=O ?
Result block: > 100 µM

Query block: What value of measured TGI is listed for Cc1cn(C2OC(CO[Si](C)(C)C(C)(C)C)C(N(C)O[Si](C)(C)C(C)(C)C)C2[Se]c2ccccc2)c(=O)[nH]c1=O (stereo not drawn) ?
Result block: > 100 µM

Source of measurements: PubChem BioAssay (NCI)
